# METHOD DESCRIPTION: NCI Yeast Anticancer Drug Screen. Data for the rad50 strain (AID 155);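 also: 0% = growth of vehicle-only cultures of the same strain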
# REPORTED CONDITIONS: S. cerevisiae rad50 strain growth inhibition; at 50.0 µM; stronger effect = higher value
This is part of a sample that, as a whole, favours compounds with a hit. Of some 79,000 tested, about 15% had one in any assay.
Parameter growth inhibition: see the listing below.
MEASUREMENT NAME: growth inhibition (%)

{"COMPOUND": "O=C(NN1C(=O)C(Cl)C1c1cccc(O)c1)c1ccccc1O (stereo unspecified)", "MEASUREMENT NAME": "growth inhibition", "OUTPUT UNIT": "%", "NUMERIC READOUT": -47.5}
{"COMPOUND": "Cc1ccc(NC(=O)CCSC(=O)Nc2ccc(C)cc2)cc1", "MEASUREMENT NAME": "growth inhibition", "OUTPUT UNIT": "%", "NUMERIC READOUT": -1.2}
{"COMPOUND": "CC1CN(c2ccc(Cl)cc2)CC(C)(C)OC(=O)O1 (stereo unspecified)", "MEASUREMENT NAME": "growth inhibition", "OUTPUT UNIT": "%", "NUMERIC READOUT": -12.2}
{"COMPOUND": "O=C1OC(=O)C2C3C=CC(CC3)C12 (stereo unspecified)", "MEASUREMENT NAME": "growth inhibition", "OUTPUT UNIT": "%", "NUMERIC READOUT": -1.35}
{"COMPOUND": "NC(=O)C(Cl)=C(Cl)Cl", "MEASUREMENT NAME": "growth inhibition", "OUTPUT UNIT": "%", "NUMERIC READOUT": 2.85}
{"COMPOUND": "Cc1ccc(S(=O)(=O)NCCCN(CCCNS(=O)(=O)c2ccc(C)cc2)S(=O)(=O)c2ccc(C)cc2)cc1", "MEASUREMENT NAME": "growth inhibition", "OUTPUT UNIT": "%", "NUMERIC READOUT": -8.25}
